- Tested on: Mycobacterium smegmatis ATCC 19420
- ASSAY_SUMMARY: MIC broth microdilution, M. smegmatis ATCC 19420
- TEST_CONTEXT: 72 hours at 35° C., CAMHB
QUANTITY_MEASURED: MIC Broth microdilution M. smegmatis ATCC19420 (µg/mL)

MOLECULE	EXPERIMENTAL_TARGET	ENDPOINT_UNIT	RESULT_VALUE
CC(C(NC(=O)C(Cc1ccccc1)NC(=O)NC(Cc1c[nH]c2ccccc12)C(=O)O)C(=O)NCC1CC(O)C(n2ccc(=O)[nH]c2=O)O1)N(C)C(=O)C(N)Cc1ccccc1 (stereo not shown)	Mycobacterium smegmatis ATCC 19420	µg/mL	16
CC(N)C(=O)N(C)C(C)C(NC(=O)C(Cc1ccccc1)NC(=O)NC(Cc1ccc2ccccc2c1)C(=O)O)C(=O)NCC1CC(O)C(n2ccc(=O)[nH]c2=O)O1 (stereo not shown)	Mycobacterium smegmatis ATCC 19420	µg/mL	8
CC(C)CC(N)C(=O)N(C)C(C)C(NC(=O)C(Cc1ccccc1)NC(=O)NC(Cc1c[nH]c2ccccc12)C(=O)O)C(=O)NCC1CC(O)C(n2ccc(=O)[nH]c2=O)O1 (stereo not shown)	Mycobacterium smegmatis ATCC 19420	µg/mL	8
CC(N)C(=O)N(C)C(C)C(NC(=O)C(CC1CCCCC1)NC(=O)NC(Cc1c[nH]c2ccccc12)C(=O)O)C(=O)NCC1CC(O)C(n2ccc(=O)[nH]c2=O)O1 (stereo not shown)	Mycobacterium smegmatis ATCC 19420	µg/mL	8

---

- Tested on: Pasteurella multocida pm002
- ASSAY_SUMMARY: MIC broth microdilution, P. multocida pm002 (wild type)
- Assay type: cell-based

COMPOUND	INEQUALITY_OPERATOR	MIC (μg/ml) Broth microdilution / µg/mL
C[C@H](N)C(=O)N(C)[C@@H](C)[C@H](NC(=O)[C@H](Cc1ccccc1)NC(=O)N[C@@H](Cc1ccc(O)cc1)C(=O)O)C(=O)NC[C@H]1C[C@@H](O)[C@H](n2ccc(=O)[nH]c2=O)O1 [Compound 160]	=	256
CC(C(NC(=O)C(Cc1ccccc1)NC(=O)NC(Cc1c[nH]c2ccccc12)C(=O)O)C(=O)NCC1CC(O)C(n2ccc(=O)[nH]c2=O)O1)N(C)C(=O)C(N)Cc1ccc(F)cc1 (centres unmarked) [Compound 114]	=	256
C[C@H](N)C(=O)N(C)[C@@H](C)[C@H](NC(=O)[C@H](Cc1ccccc1F)NC(=O)N[C@@H](Cc1c[nH]c2ccccc12)C(=O)O)C(=O)NC[C@H]1C[C@@H](O)[C@H](n2ccc(=O)[nH]c2=O)O1 [Compound 139]	=	256
CC(N)C(=O)N(C)C(C)C(NC(=O)C(Cc1cscn1)NC(=O)NC(Cc1ccc(O)cc1)C(=O)O)C(=O)NCC1CC(O)C(n2ccc(=O)[nH]c2=O)O1 (centres unmarked) [Compound 132]	>	512
CC(N)C(=O)N(C)C(C)C(NC(=O)C(Cc1ccc(F)cc1)NC(=O)NC(C(=O)O)c1ccccc1)C(=O)NCC1CC(O)C(n2ccc(=O)[nH]c2=O)O1 (mixture of isomers) [Compound 141]	>	512

---

- System: Pasteurella multocida pm002
- ASSAY_SUMMARY: MIC broth microdilution, P. multocida pm002 (wild type)
- Type: cell-based
MIC (μg/ml) Broth microdilution: recorded values
QUANTITY_MEASURED: MIC (μg/ml) Broth microdilution (µg/mL)

COMPOUND	RESULT_VALUE
CSCCC(NC(=O)NC(Cc1ccc(O)cc1)C(=O)O)C(=O)NC(C(=O)NCC1CC(O)C(n2ccc(=O)[nH]c2=O)O1)C(C)N(C)C(=O)C(C)N (stereo not drawn)	128
C[C@H](N)C(=O)N(C)[C@@H](C)[C@H](NC(=O)[C@H](Cc1ccc2ccccc2c1)NC(=O)N[C@@H](Cc1c[nH]c2ccccc12)C(=O)O)C(=O)NC[C@H]1C[C@@H](O)[C@H](n2ccc(=O)[nH]c2=O)O1	64
CC(C)CC(NC(=O)NC(Cc1ccc(O)cc1)C(=O)O)C(=O)NC(C(=O)NCC1CC(O)C(n2ccc(=O)[nH]c2=O)O1)C(C)N(C)C(=O)C(C)N (stereo not drawn)	512
